Test: Transaminase levels, liver and spleen weights, body weight (Example 6, Table 47)
Type: in vivo, mouse
Settings: 8 μmol/kg single i.p.; 72 h; Balb/c mice
Strand notation (5' to 3'): a small letter for the sugar, then the base; units joined by * are phosphorothioate-linked, units joined directly phosphodiester-linked; [ ] holds rarer units or linkages, { } end groups; capitals alone tell only the bases. e = 2'-O-(2-methoxyethyl) (MOE); l = locked nucleic acid (LNA); [5mC] = 5-methylcytosine; d = 2'-deoxy (DNA)
test readout: ALT (IU/L)

1. 141923 (antisense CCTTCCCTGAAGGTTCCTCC; sugars from the 5' end e5 d10 e5, all phosphorothioate, methylation of C not given here) [compound 141923] ... 34.8
2. 391172 (antisense lC*lT*dA*dG*dC*dC*dT*dC*dT*dG*dG*dA*lT*lT*lT) [compound 391172] ... 32.8
3. 392061 (antisense l[5mC]*lT*dA*dG*dC*dC*dT*dC*dT*dG*dG*dA*lT*lT) [compound 392061] ... 42.0
4. 384073 (antisense lG*lC*lT*dA*dG*d[5mC]*d[5mC]*dT*d[5mC]*dT*dG*dG*dA*lT*lT*lT) [compound 384073] ... 29.3
